- Assayed system: central domain of ERCC1 (ERCC196-214) (Homo sapiens)
- Construct: His6 (N); made in house; host or cells: E. coli BL21(DE3)
- Sequence (P07992 96-214): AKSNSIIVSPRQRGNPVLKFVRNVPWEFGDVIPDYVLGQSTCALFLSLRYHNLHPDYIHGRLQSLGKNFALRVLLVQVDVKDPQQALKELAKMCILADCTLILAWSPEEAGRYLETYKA
- Assay comment: Competitive binding equilibrium titrations, fluorescence anisotropy of 6FAM-labeled single-stranded 40mer DNA
- Applied conditions: best fit of competition titration to Eq. 9; 50 nM DNA, 2.33 μM ERCC196-214; read-out: dissociation equilibrium constant (Kd) of the XPA-ERCC1 complex
No end group written: not given here.
Measured parameter: Kd (nM)
Give just the numeric value; nM need not be written.

Incoming: Please give the measured Kd for this sequence: KIIDTGGGFILEEE [XPA67-80]
Outgoing: 300
